These measurements were taken from the Human Domainome abundance scans (Beltran et al. 2025).

B1: Cold shock protein CspB, residues 1 to 66; numbered along this chain, P41016 (parent)
chain: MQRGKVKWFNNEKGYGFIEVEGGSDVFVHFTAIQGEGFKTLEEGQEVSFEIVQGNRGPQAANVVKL

variants of: B1; assay: abundance fitness (aPCA) (normalised: wild type 0, dead -1); higher = more abundant; growth selection in yeast, the domain comes from the species named; details: Bacillus caldolyticus
Everything with abundance fitness lower than -0.1 is 0; everything else, including exactly -0.1, is 1.

Does `F30S` have a reported abundance fitness of at least -0.1? 1

For `I18K` then? 0

How about this variant: `F27A` 0

Then `E42A` ? 1

Same question for `N10R` please. 1

Same for `K5S` 1

Check `R3S` too. 1

Repeat with `E36W` 1

Likewise for `A32G` ? 1

Moving on to the next variant: `L41A` 0

Try the variant `S24T` 1

Same for `K7M` 1

`E42G` ? 1

Now the same for `F17D` 0

Same thing, different variant: `E43V` 1

Again, but for `G37R` 1

Do the same for `W8G` please 0

Now give it for `V28E` too. 0

How about `G4S` ? 0

One more variant: `R3A` 1

Same for `G14L` 0

Now give it for `E36H` too. 1

One more variant: `E36T` 1

What do we get for `S24R` ? 1

Same for `Q45T` 1

Also need `R3Q` , thanks. 1

How about `G4Y` ? 0

Okay, and `S24Q` ? 1

Consider next the variant `N11S` in the same way. 1

Ok, now `E12N` 1

Try this variant next: `V26F` 0

Next: `V20A` 1

How about this variant: `G14A` 0

Please give the result for `F17P` too. 0

Now the variant `H29M` 0

How about `V28L` ? 0

How about this variant: `G35I` 0

Lookup `G35Y` 1

One more variant: `F17T` 0

Try the variant `N11Q` 0

Cool, now `Q2H` 1

Further, for `K13Q` ? 1

And what about the variant `N10M` ? 1

Ok, now `E43P` 1
